# System: SJSA-1 cells
# assay-protocol: Cell lysis by peptidomimetic macrocycles (LDH release)
# Format: cell-based
# protocol-conditions: 25 μM, SJSA-1, 1 h
Bridge positions count the residues as written; N and C are the ends. Square brackets hold non-standard residues; d marks the D form. Peptide text beside a SMILES is read from it. R8 = C=CCCCCCC[C@@](C)(N)C(=O)O; S5 = C=CCCC[C@](C)(N)C(=O)O
measured-endpoint: 25 μM % Lysed cells (1 h LDH)
Put your answer as a value accompanied by its unit after it.

- compound: "CC(=O)N[C@@H](CC(C)C)C(=O)N[C@H](C(=O)N[C@@H](Cc1ccccc1)C(=O)N[C@]1(C)CCCCCCC=CCCC[C@@](C)(C(=O)N[C@@H](C)C(=O)N[C@@H](Cc2c[nH]cn2)C(=O)N[C@@H](Cc2ccccc2)C(=O)N[C@@H](C)C(N)=O)NC(=O)[C@H](CC(C)C)NC(=O)[C@H](C)NC(=O)[C@H](C)NC(=O)[C@H](Cc2c[nH]c3ccccc23)NC(=O)[C@H](Cc2ccc(O)cc2)NC(=O)[C@H](C)NC1=O)[C@@H](C)O [compound 204] (Ac-LTF[R8]AYWAAL[S5]AHFA-NH2; staple 4-11)"
  25 μM % Lysed cells (1 h LDH): "2%"

Now turn to the next compound.
q: Quote 25 μM % Lysed cells (1 h LDH) reported for CC(=O)N[C@@H](CCC(=O)O)C(=O)N[C@H](C(=O)N[C@@H](Cc1ccccc1)C(=O)N[C@]1(C)CCCCCCC=CCCC[C@@](C)(C(=O)N[C@@H](CO)C(=O)N[C@H](C(=O)N[C@@H](CO)C(N)=O)C(C)C)NC(=O)[C@H](CC(C)C)NC(=O)[C@H](CCC(N)=O)NC(=O)[C@H](C)NC(=O)[C@H](Cc2c[nH]c3ccccc23)NC(=O)[C@H](Cc2ccc(O)cc2)NC(=O)[C@H](C(C)C)NC1=O)[C@@H](C)O [compound 130] (Ac-ETF[R8]VYWAQL[S5]SVS-NH2; staple 4-11) please.
a: 0%

====

# Tested on: Caspase 3
# assay-protocol: Caspase 3 detection assay in SJSA1 cells
# Format: cell-based
# protocol-conditions: 0.3 μM, SJSA1, 48 h, Caspase 3 activation over DMSO-treated cells
Bridge positions count the residues as written; N and C are the ends. Square brackets hold non-standard residues; d marks the D form. Peptide text beside a SMILES is read from it. R8 = C=CCCCCCC[C@@](C)(N)C(=O)O; S5 = C=CCCC[C@](C)(N)C(=O)O
measured-endpoint: caspase 0.3 μM
Output spec: single numeric token, no unit.

- compound: "CC(=O)N[C@@H](CC(C)C)C(=O)N[C@H](C(=O)N[C@@H](Cc1ccccc1)C(=O)N[C@]1(C)CCCCCCC=CCCC[C@@](C)(C(=O)N[C@@H](CO)C(=O)N[C@@H](C)C(=O)N[C@@H](Cc2ccccc2)C(N)=O)NC(=O)[C@H](CC(C)C)NC(=O)[C@H](CCC(N)=O)NC(=O)[C@H](C)NC(=O)[C@H](Cc2c[nH]c3ccccc23)NC(=O)[C@H](Cc2ccc(O)cc2)NC(=O)[C@H](C)NC1=O)[C@@H](C)O [compound 7] (Ac-LTF[R8]AYWAQL[S5]SAF-NH2; staple 4-11)"
  measured-endpoint: "caspase 0.3 μM"
  endpoint-result: 0.93

Now turn to the next compound.
q: Quote caspase 0.3 μM reported for CC(=O)N[C@@H](C)C(=O)N[C@@H](CC(C)C)C(=O)N[C@H](C(=O)N[C@@H](Cc1ccccc1)C(=O)N[C@]1(C)CCCCCCC=CCCC[C@@](C)(C(=O)N[C@@H](CO)C(=O)N[C@@H](C)C(=O)N[C@@H](C)C(=O)N[C@@H](C)C(=O)N[C@H](C)C(N)=O)NC(=O)[C@H](CC2CCC2)NC(=O)[C@H](CCC(N)=O)NC(=O)[C@H](C)NC(=O)[C@H](Cc2c[nH]c3ccccc23)NC(=O)[C@H](Cc2ccc(O)cc2)NC(=O)[C@H](CCC(=O)O)NC1=O)[C@@H](C)O (single isomer, unassigned) please.
a: 2
